biological target: Toll-like receptor 7 (Homo sapiens); assay: n Vitro Biological Assays: Plasmacytoid dendritic cell (pDC)—enriched peripheral blood mononuclear cells (PBMCs) were prepared from the blood of a series of human donors (3-5 donors/experiment). PBMCs were isolated using Ficoll-Paque Premium® (GE Healthcare, Chicago Ill.) using methods well known to those in the art. pDCs were magnetically isolated from the total recovered PBMC population using CD304 (BDCA-4/Neuropilin-1) microbeads (Miltenyi Biotec, San Diego Calif.), according to the manufacturer's instructions. Isolated pDCs were then added back to between 1 and 2×108 of the corresponding donor's PBMCs for relative enrichment of this cell type. […] Culture supernatants were collected and interferon-alpha (IFNα) protein levels were measured by ELISA (MabTech, Cincinnati Ohio), according to the manufacturer's instructions.Monocytes were magnetically isolated from PBMCs, prepared as described above, following labeling with CD14 microbeads (Miltenyi Biotec, San Diego Calif.), according to the manufacturer's instructions. […] Culture supernatants were collected and tumor necrosis factor alpha (TNFα) protein levels were measured by ELISA (MabTech, Cincinnati Ohio), according to the manufacturer's instructions.
Sequence (Q9NYK1 whole entry): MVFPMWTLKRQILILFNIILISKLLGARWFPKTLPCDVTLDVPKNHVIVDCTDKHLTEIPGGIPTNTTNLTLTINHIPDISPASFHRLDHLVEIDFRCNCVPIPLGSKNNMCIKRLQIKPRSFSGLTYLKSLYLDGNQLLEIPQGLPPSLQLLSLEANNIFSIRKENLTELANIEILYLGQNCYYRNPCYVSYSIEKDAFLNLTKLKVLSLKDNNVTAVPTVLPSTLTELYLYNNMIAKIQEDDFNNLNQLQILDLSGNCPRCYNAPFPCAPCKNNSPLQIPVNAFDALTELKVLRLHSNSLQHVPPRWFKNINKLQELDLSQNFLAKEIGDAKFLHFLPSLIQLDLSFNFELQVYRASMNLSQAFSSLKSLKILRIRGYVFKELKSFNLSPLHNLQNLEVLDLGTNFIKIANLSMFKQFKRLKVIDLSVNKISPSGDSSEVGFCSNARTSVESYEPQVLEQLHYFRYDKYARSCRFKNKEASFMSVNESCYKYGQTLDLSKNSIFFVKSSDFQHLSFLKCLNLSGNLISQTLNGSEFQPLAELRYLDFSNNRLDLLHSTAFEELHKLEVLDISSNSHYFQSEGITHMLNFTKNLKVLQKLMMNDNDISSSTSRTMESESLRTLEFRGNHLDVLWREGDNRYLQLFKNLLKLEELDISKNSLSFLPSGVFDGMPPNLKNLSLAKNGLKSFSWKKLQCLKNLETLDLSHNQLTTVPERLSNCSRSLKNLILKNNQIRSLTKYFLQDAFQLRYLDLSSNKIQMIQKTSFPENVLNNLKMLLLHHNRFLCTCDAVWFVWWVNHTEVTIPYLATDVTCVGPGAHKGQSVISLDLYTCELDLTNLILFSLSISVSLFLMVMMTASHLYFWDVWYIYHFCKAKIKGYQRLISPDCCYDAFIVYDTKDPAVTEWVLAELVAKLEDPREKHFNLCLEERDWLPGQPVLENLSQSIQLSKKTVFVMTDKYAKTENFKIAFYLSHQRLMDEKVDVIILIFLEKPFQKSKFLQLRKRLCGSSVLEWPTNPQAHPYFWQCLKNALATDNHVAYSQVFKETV
Can you tell me EC50 for the items I'm about to list?
Give bare numbers, in nM.

Please give EC50, item by item, for the list that follows.
1. CCCCCC(=O)NCc1ccc(Cn2c(CCCC)nc3c(N)nc4ccccc4c32)cc1
2. CCCCCCCCCCCCCCCCCC(=O)NCc1ccc(Cn2c(CCCC)nc3c(N)nc4ccccc4c32)cc1
3. CCCCCCCCCCCCCCC(=O)NCc1ccc(Cn2c(CCCC)nc3c(N)nc4ccccc4c32)cc1

[11, 41, 2]
